The compounds listed here are annotated with their GI50.
System: NCI-H226
Assay Overview: NCI tumour cell line growth inhibition, 48 h
The source made the active and inactive calls. Cut-off read from the data, not from the text of the source: active = GI50 up to about 1.1 µM and inactive = higher.

Worked examples follow.
Compound	Val
Cc1ccc(-c2nc(N/N=C/c3ccc(O)cc3)c3ccccc3n2)cc1	21.5 µM (inactive)
CO/C(=N\N=C\c1ccc(Cl)cc1)c1ccncc1	59.7 µM (inactive)
CCOC(=O)c1nc2ccc(Cl)cc2c2c1Cc1ccccc1-2	> 100 µM (inactive)
COC(=O)C1CCC(=O)N1C(c1ccc(OC)cc1)c1ccc2c(c1)OCO2 (stereo unspecified)	67.3 µM (inactive)
CC(C)(C1=NC(C(C)(C)C)CO1)C1=N[C@@H](C(C)(C)C)CO1 (stereo partly specified)	> 100 µM (inactive)

Lab note: CC(C)(C)[Si](C)(C)O[C@@H](C(=O)OC1C=CCCC1)[C@@H](NC(=O)c1ccccc1)c1ccccc1 (stereo partly specified) gave GI50 of 37.8 µM (inactive)

Lab note: CC12C(=O)OC(=O)C1(C)C1C=CC2O1 (stereo unspecified) gave GI50 of 21.7 µM (inactive)
